Where do these numbers come from? They come from patent US20230263822A1.

Listed substances paired with reported aPTT ratio relative to PBS group
system: blood coagulation; assay: PT and aPTT assay in cynomolgus monkeys (Example 46); assay type: in vivo; details: Day −14; platelet poor plasma; relative to PBS group
Strand notation (5' to 3'): a small letter for the sugar, then the base; units joined by * are phosphorothioate-linked, units joined directly phosphodiester-linked; [ ] holds rarer units or linkages, { } end groups; capitals alone tell only the bases. e = 2'-O-(2-methoxyethyl) (MOE); [5mC] = 5-methylcytosine; d = 2'-deoxy (DNA)

Examples from the recorded data:
ISIS 416850: MOE gapmer, nucleobases 1275 to 1318 of SEQ ID NO: 1 (Table 8) (antisense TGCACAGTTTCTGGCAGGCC; MOE gapmer, wing and gap sizes not given here)
0.99
ISIS 445531: 5-8-5 or 6-8-6 MOE microwalk gapmer (Table 44) (antisense eG*eG*e[5mC]*eA*eT*dT*dG*dG*dT*dG*d[5mC]*dA*d[5mC]*eA*eG*eT*eT*eT)
1.00
ISIS 449710: 3-8-3, 4-8-4, 2-10-2, 3-10-3 or 4-10-4 MOE microwalk gapmer (Table 46) (antisense e[5mC]*eA*e[5mC]*dA*dG*dT*dT*dT*d[5mC]*dT*dG*dG*d[5mC]*eA*eG*eG)
1.07

Given the entry ISIS 449711: 3-8-3, 4-8-4, 2-10-2, 3-10-3 or 4-10-4 MOE microwalk gapmer (Table 46) (antisense eA*e[5mC]*dA*dG*dT*dT*dT*d[5mC]*dT*dG*dG*d[5mC]*eA*eG) , report its measured aPTT ratio relative to PBS group.
0.94

----------
Listed substances paired with reported RBC count
assay: Hematology assays in cynomolgus monkeys (Example 45); assay type: in vivo; settings: day 29; escalating dose regimen
Just the number in µL⁻¹, nothing appended.

ISIS 416850: MOE gapmer, nucleobases 1275 to 1318 of SEQ ID NO: 1 (Table 8) (antisense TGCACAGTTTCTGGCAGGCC; MOE gapmer, wing and gap sizes not given here)
4.9e+06
ISIS 416864: MOE gapmer, nucleobases 1275 to 1318 of SEQ ID NO: 1 (Table 8) (antisense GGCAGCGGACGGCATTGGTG; MOE gapmer, wing and gap sizes not given here)
5.3e+06
ISIS 416838: MOE gapmer, nucleobases 1018 to 1042 of SEQ ID NO: 1 (Table 6) (antisense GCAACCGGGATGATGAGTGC; MOE gapmer, wing and gap sizes not given here)
5.3e+06

Given the entry ISIS 416858: MOE gapmer, nucleobases 1275 to 1318 of SEQ ID NO: 1 (Table 8) (antisense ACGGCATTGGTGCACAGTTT; MOE gapmer, wing and gap sizes not given here) , report its measured RBC count.
5.3e+06

What do you have for ISIS 417002: MOE gapmer, nucleobases 1275 to 1318 of SEQ ID NO: 1 (Table 8) (antisense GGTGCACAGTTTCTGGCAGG; MOE gapmer, wing and gap sizes not given here) ?
5.2e+06

----------
Listed substances paired with reported BUN
details: rat, in vivo, sc, 50 mg/kg
e = 2'-O-(2-methoxyethyl) (MOE); d = 2'-deoxy (DNA)
Hey, just the number and the unit after it is fine.

Examples from the recorded data:
ISIS 416860: MOE gapmer, nucleobases 1275 to 1318 of SEQ ID NO: 1 (Table 8) (antisense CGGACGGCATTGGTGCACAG; MOE gapmer, wing and gap sizes not given here)
23 mg/dL
ISIS 413481: 5-10-5 MOE gapmer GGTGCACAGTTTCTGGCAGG (sugars from the 5' end e5 d10 e5, backbone and methylation of C not given here)
26 mg/dL
ISIS 413482: 5-10-5 MOE gapmer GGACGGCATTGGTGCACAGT (sugars from the 5' end e5 d10 e5, backbone and methylation of C not given here)
23 mg/dL
ISIS 416866: MOE gapmer, nucleobases 1275 to 1318 of SEQ ID NO: 1 (Table 8) (antisense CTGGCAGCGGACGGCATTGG; MOE gapmer, wing and gap sizes not given here)
22 mg/dL

Given the entry ISIS 416852: MOE gapmer, nucleobases 1275 to 1318 of SEQ ID NO: 1 (Table 8) (antisense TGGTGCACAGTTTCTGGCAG; MOE gapmer, wing and gap sizes not given here) , report its measured BUN.
25 mg/dL
